Task for the reader: assign each of the following compounds its reported inhibition.
- target_system: Hepatocyte growth factor receptor (Homo sapiens) (UniProt P08581)
- Sequence (P08581 whole entry): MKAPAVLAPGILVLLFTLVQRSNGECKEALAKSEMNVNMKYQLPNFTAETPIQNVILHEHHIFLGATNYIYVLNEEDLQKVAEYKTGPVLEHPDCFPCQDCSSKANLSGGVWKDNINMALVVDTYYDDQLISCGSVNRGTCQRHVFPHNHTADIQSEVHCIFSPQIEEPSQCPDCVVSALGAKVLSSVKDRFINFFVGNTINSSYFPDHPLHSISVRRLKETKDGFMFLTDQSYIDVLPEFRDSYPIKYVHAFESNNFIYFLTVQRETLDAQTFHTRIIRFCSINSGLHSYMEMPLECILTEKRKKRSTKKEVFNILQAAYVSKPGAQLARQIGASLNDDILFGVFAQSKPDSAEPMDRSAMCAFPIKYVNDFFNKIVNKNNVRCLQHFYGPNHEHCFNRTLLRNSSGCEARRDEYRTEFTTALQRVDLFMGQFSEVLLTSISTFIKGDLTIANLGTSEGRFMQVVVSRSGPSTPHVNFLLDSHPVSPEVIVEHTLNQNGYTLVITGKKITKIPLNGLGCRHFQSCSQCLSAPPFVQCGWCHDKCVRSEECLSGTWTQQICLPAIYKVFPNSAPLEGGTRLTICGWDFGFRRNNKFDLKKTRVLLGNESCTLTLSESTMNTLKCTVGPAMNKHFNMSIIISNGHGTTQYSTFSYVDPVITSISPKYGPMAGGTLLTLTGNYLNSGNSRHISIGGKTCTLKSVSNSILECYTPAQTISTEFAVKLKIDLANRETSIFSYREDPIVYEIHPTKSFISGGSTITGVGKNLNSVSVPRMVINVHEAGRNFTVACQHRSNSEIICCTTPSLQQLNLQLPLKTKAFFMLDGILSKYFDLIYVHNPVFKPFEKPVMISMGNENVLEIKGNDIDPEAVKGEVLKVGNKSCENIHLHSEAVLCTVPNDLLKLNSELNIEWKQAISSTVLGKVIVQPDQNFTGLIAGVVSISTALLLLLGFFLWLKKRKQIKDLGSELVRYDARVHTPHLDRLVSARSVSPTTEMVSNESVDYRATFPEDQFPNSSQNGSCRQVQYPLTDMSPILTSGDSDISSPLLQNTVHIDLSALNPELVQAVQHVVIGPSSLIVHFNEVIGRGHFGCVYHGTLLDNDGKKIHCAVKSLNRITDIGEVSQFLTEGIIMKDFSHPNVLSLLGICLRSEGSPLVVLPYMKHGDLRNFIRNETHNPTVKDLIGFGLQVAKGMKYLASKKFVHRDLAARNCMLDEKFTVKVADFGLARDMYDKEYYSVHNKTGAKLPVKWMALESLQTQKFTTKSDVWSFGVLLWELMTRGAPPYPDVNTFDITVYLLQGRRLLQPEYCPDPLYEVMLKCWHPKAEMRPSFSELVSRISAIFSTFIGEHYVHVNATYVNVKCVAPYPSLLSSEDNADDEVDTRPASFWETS
- procedure_details: In vitro percent inhibition of Met proto-oncogene tyrosine kinase at 10 uM concentration of compound dissolved in 100% DMSO using 5''-[gamma-33P]-triphosphate
One number for each entry, in %.

Please review the following examples before continuing.
O=C(O)Cc1ccc(-c2nc3cc4ccccc4cc3nc2-c2ccc(CC(=O)O)s2)s1 | 27
O=C(O)CCCc1ccc(-c2nc3cc4ccccc4cc3nc2-c2ccc(CCCC(=O)O)s2)s1 | 7
O=C(O)Cc1csc(-c2nc3cc4ccccc4cc3nc2-c2cc(CC(=O)O)cs2)c1 | 21
Oc1cc2nc(-c3cccs3)c(-c3cccs3)nc2cc1O | 0
O=C(O)c1ccc(-c2nc3cc4ccccc4cc3nc2-c2ccc(C(=O)O)s2)s1 | -4

# compound c1csc(-c2nc3cc4c(cc3nc2-c2cccs2)OCO4)c1 ; its inhibition = 34

* * *

- target_system: UniProt:O75116
- Sequence (O75116 whole entry, looked up): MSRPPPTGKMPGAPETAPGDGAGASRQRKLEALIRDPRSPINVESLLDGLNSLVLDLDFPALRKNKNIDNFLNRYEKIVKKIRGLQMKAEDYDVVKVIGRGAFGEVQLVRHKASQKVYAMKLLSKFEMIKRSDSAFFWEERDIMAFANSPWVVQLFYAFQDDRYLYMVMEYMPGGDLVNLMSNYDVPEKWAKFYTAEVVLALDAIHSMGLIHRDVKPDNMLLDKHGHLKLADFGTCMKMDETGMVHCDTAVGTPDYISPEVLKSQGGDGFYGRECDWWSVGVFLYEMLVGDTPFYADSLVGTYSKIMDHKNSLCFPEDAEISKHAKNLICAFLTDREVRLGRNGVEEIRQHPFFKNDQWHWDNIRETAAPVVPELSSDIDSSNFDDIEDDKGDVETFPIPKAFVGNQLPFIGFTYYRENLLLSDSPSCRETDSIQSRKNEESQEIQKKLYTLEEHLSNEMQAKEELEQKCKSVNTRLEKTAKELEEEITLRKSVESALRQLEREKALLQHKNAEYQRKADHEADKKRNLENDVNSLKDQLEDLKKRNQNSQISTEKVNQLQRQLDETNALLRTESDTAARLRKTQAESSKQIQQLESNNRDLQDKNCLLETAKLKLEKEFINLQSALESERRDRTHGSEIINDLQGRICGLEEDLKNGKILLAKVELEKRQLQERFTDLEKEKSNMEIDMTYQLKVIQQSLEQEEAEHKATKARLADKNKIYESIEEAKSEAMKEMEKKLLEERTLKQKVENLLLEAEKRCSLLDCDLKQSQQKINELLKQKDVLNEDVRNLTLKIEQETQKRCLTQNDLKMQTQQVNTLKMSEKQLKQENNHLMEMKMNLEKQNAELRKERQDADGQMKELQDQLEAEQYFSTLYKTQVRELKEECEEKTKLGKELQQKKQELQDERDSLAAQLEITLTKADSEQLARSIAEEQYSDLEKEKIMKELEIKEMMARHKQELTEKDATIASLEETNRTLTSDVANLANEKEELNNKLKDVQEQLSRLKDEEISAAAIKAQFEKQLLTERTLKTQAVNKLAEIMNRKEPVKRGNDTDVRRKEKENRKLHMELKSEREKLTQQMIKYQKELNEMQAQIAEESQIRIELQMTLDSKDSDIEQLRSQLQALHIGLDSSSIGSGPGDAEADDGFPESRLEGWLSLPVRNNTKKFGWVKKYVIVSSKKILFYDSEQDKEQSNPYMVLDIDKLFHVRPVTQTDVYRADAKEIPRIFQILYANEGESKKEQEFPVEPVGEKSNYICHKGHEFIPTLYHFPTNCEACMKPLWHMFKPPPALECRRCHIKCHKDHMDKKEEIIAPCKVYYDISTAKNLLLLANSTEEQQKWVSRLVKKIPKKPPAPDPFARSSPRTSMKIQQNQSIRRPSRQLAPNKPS
- procedure_details: In vitro percent inhibition of Protein kinase ROCK2 at 10 uM concentration of compound dissolved in 100% DMSO using 5''-[gamma-33P]-triphosphate
Kindly state inhibition for each of the entries shown.
Numbers only, in %.

COc1cc2nc(-c3cccs3)c(-c3cccs3)nc2cc1OC | 2
O=C(O)Cc1csc(-c2nc3cc4ccccc4cc3nc2-c2cc(CC(=O)O)cs2)c1 | 18
c1csc(-c2nc3cc4ccccc4cc3nc2-c2cccs2)c1 | 19

Now, please, on to the next compound.
Given item COc1cc2nc3nc(-c4cccs4)c(-c4cccs4)nc3nc2cc1OC , the value recorded as its inhibition is -1

* * *

- target_system: Ribosomal protein S6 kinase (P70S6K) (Homo sapiens) (UniProt Q9UBS0+P23443)
- procedure_details: In vitro percent inhibition of Ribosomal protein S6 kinase at 10 uM concentration of compound dissolved in 100% DMSO using 5''-[gamma-33P]-triphosphate
- Format: protein-complex assay
measured_metric: inhibition (%)
Numbers only, in %.

COC(=O)CCc1ccc(-c2nc3cc4ccccc4cc3nc2-c2ccc(CCC(=O)OC)s2)s1 | 11
O=C(O)Cc1csc(-c2nc3cc4ccccc4cc3nc2-c2cc(CC(=O)O)cs2)c1 | 10

Attention now shifts to the item below.
Note to self: inhibition of c1csc(-c2nc3cc4c(cc3nc2-c2cccs2)OCO4)c1 with Ribosomal protein S6 kinase (P70S6K) (Homo sapiens) (UniProt Q9UBS0+P23443) was 6

* * *

- procedure_details: Partition coefficient (logP)
- Format: physicochemical
- condition_set: octanol/water
measured_metric: logP
Numbers only.

COc1cc2nc3nc(-c4cccs4)c(-c4cccs4)nc3nc2cc1OC | 4.79
O=C(O)c1ccc(-c2nc3cc4ccccc4cc3nc2-c2ccc(C(=O)O)s2)s1 | 5.03
c1csc(-c2nc3cc4c(cc3nc2-c2cccs2)OCO4)c1 | 4.8
O=C(O)Cc1csc(-c2nc3cc4ccccc4cc3nc2-c2cc(CC(=O)O)cs2)c1 | 4.11
c1csc(-c2nc3cc4c(cc3nc2-c2cccs2)OCCCO4)c1 | 5

# batch size: 2; output logP per entry
1. O=C(O)C1COc2cc3nc(-c4cccs4)c(-c4cccs4)nc3cc2O1 (stereo not drawn)
2. c1csc(-c2nc3cc4c(cc3nc2-c2cccs2)OCCO4)c1

4.7
5

These measurements were taken from ChEMBL document CHEMBL1140238.
